Each recorded value in this set is attributed to the Human Domainome abundance scans (Beltran et al. 2025).

B1: Homeobox expressed in ES cells 1, residues 110 to 165; numbered along this chain, Q9UBX0 (parent)
chain: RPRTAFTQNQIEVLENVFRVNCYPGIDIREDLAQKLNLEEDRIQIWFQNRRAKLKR

Variants of: B1
Test description: abundance fitness (aPCA) (normalised: wild type 0, dead -1); higher = more abundant; growth selection in yeast, the domain comes from the species named
Condition info: Homo sapiens
Entries annotated with measured abundance fitness

>>> observed_measurement("Q10G")
-0.574
>>> observed_measurement("I28V")
0.045

Request: For the variant `G25Q` , give its reported abundance fitness.
Response: -0.744

Request: For the variant `Q8P` , give its reported abundance fitness.
Response: -0.082

Request: For the variant `N21G` , give its reported abundance fitness.
Response: -0.262

Request: For the variant `R1A` , give its reported abundance fitness.
Response: 0.352

Request: For the variant `G25A` , give its reported abundance fitness.
Response: -0.079

Request: For the variant `E30H` , give its reported abundance fitness.
Response: 0.234

Request: For the variant `T4Y` , give its reported abundance fitness.
Response: -0.163
